# TARGET: GRK6, recombinant full-length GST-tagged human protein (Homo sapiens, UniProt P43250)
# Construct: GRK6, recombinant full-length GST-tagged human protein; GST
# Sequence (P43250 whole entry): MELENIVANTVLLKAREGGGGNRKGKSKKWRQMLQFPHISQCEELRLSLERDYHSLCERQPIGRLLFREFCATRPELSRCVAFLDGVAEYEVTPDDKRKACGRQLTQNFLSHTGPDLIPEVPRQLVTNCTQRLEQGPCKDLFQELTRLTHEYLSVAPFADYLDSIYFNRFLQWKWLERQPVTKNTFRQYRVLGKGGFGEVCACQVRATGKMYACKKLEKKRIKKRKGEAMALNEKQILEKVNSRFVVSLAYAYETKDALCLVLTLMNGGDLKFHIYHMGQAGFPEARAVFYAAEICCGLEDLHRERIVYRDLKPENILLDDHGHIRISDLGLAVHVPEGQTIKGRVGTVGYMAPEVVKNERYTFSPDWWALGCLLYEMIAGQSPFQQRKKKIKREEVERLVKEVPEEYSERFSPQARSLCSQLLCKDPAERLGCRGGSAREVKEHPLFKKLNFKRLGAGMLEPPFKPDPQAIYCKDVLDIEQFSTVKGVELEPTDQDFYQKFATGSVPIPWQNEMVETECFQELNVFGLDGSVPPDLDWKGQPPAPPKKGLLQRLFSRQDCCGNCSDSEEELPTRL
# TEST_METHOD_NOTES: GRK6 IC50 determination (8-point concentration-response)
# Assay type: biochemical
Under this convention, 1 (yes) denotes IC50 strictly below 500 nM and 0 (no) denotes IC50 at or above 500 nM.

COMPOUND_STRUCTURE | CLASSIFICATION
COc1ccc2cc(-c3cc(-c4nnc(SCC(=O)O)[nH]4)cc([N+](=O)[O-])c3)ccc2c1 | 1 (yes)
O=C(O)CSc1nnc(-c2cc(-c3cc[nH]n3)cc([N+](=O)[O-])c2)[nH]1 | 0 (no)
CNS(=O)(=O)c1ccc(-c2cc(-c3nnc(SCC(=O)O)[nH]3)cc([N+](=O)[O-])c2)cc1 | 0 (no)
O=C(O)CSc1nnc(-c2cc(-c3cn[nH]c3)cc([N+](=O)[O-])c2)[nH]1 | 1 (yes)
CC(=O)Nc1ccc(-c2cc(-c3nnc(SCC(=O)O)[nH]3)cc([N+](=O)[O-])c2)cc1 | 1 (yes)
O=C(O)CSc1nnc(-c2cc(-c3ccc4ccccc4c3)cc(C3C=NN=C3)c2)[nH]1 | 1 (yes)
COc1cc(Cl)cc(-c2cc(-c3nnc(SCC(=O)O)[nH]3)cc([N+](=O)[O-])c2)c1 | 1 (yes)
Cn1ccc2ccc(-c3cc(-c4nnc(SCC(=O)O)[nH]4)cc([N+](=O)[O-])c3)cc21 | 1 (yes)
O=C(O)CSc1nnc(-c2c(O)ccc3ccccc23)[nH]1 | 0 (no)
COc1cc(-c2nnc(SCC(=O)O)[nH]2)cc2c1OCO2 | 0 (no)

A record lists `O=C(O)CSc1nnc(-c2ccc3occc3c2)[nH]1` . Is its IC50 below 500 nM? 0 (no)

A record lists `O=C(O)CSc1nnc(-c2cc(-c3ccc4ncccc4c3)cc([N+](=O)[O-])c2)[nH]1` . Is its IC50 below 500 nM? 1 (yes)

A record lists `N#Cc1cc(-c2ccc3ccccc3c2)cc(-c2nnc(SCC(=O)O)[nH]2)c1` . Is its IC50 below 500 nM? 1 (yes)

A record lists `O=C(O)CSc1nnc(-c2ccc3c(c2)OC(F)(F)O3)[nH]1` . Is its IC50 below 500 nM? 0 (no)

----------
# TARGET: GRK6, recombinant full-length GST-tagged human protein (Homo sapiens)
# Construct: GRK6, recombinant full-length GST-tagged human protein; GST
# TEST_METHOD_NOTES: GRK6 IC50 determination (8-point concentration-response)
# Type: biochemical
# CONDITION_SUMMARY: 20 nM GRK6, 12 μM ATP (Km), 1 μM Peptide 216, 7 h incubation
# From the text: Two hundred forty compounds were further characterized by determining IC50 values in a GRK6 assay. This screen has been previously described in WO 2013/063458, which is incorporated by reference in its entirety herein.
ENDPOINT_LABEL: IC50 (µM)
Record the value in µM, omitting the unit from your answer.

Worked examples, 5 compounds total:
COMPOUND_STRUCTURE | IC50, µM
COc1ccc(-c2nnc(SCC(=O)O)[nH]2)cc1O | 13.3
Cc1cc(C=O)c(O)c(-c2nnc(SCC(=O)O)[nH]2)c1 | 45.3
O=C(O)CSc1nnc(-c2ccc(N3CCCC3=O)cc2)[nH]1 | 15.4
COc1ccc(O)c(-c2nnc(SCC(=O)O)[nH]2)c1 | 4.55
Cc1ccc(-c2nnc(SCC(=O)O)[nH]2)c(O)c1 | 6.88

Recorded IC50 for `COc1cc(-c2nnc(SCC(=O)O)[nH]2)cc(OC)c1OC` , please? 8.23

Recorded IC50 for `CNS(=O)(=O)c1cccc(-c2nnc(SCC(=O)O)[nH]2)c1` , please? 18.9

Recorded IC50 for `COc1cccc(-c2nnc(SCC(=O)O)[nH]2)c1` , please? 5.85

Recorded IC50 for `O=C(O)CSc1nnc(-c2cccc(-c3ccc4ccccc4c3)c2)[nH]1` , please? 0.417

Recorded IC50 for `O=C(O)CSc1nnc(-c2cccc(-c3cccs3)c2)[nH]1` , please? 0.757

Recorded IC50 for `COc1cc(-c2nnc(SCC(=O)O)[nH]2)ccc1OC(=O)C1CC1` , please? 8.83

Recorded IC50 for `COc1cc(Cl)cc(-c2cccc(-c3nnc(SCC(=O)O)[nH]3)c2)c1` , please? 0.426

Recorded IC50 for `O=C(O)CSc1nnc(-c2cccc(Cn3cccn3)c2)[nH]1` , please? 16.2

Recorded IC50 for `COc1ccc(F)c(-c2nnc(SCC(=O)O)[nH]2)c1` , please? 18.3

Recorded IC50 for `O=C(O)CSc1nnc(-c2cc(O)ccc2O)[nH]1` , please? 6.16

Recorded IC50 for `COc1cc(F)c(-c2nnc(SCC(=O)O)[nH]2)c(F)c1` , please? 38.5

Recorded IC50 for `COc1cc(-c2nnc(SCC(=O)O)[nH]2)cc([N+](=O)[O-])c1O` , please? 15.9

Recorded IC50 for `O=C(O)CSc1nnc(-c2cc(O)cc(O)c2)[nH]1` , please? 6.54

Recorded IC50 for `COc1cc(OC)cc(-c2nnc(SCC(=O)O)[nH]2)c1` , please? 6.1

----------
# TARGET: GRK6, recombinant full-length GST-tagged human protein (Homo sapiens, UniProt P43250)
# Construct: GRK6, recombinant full-length GST-tagged human protein; GST
# TEST_METHOD_NOTES: GRK6 IC50 determination (8-point concentration-response)
# Format: biochemical
Below, each of the compounds is paired with its reported pIC50 value.
Interpret pIC50 as the negative base-10 log of the concentration measured in mol/L.

Worked examples, 4 compounds total:
COMPOUND_STRUCTURE | TEST_RESULT
O=C(O)CSc1nnc(-c2cc(-c3ccc4[nH]cc(-c5ccccc5)c4c3)cc([N+](=O)[O-])c2)[nH]1 | 7.17
N#Cc1cc2cc(-c3cc(-c4nnc(SCC(=O)O)[nH]4)cc([N+](=O)[O-])c3)ccc2[nH]1 | 6.74
O=C(O)CSc1nnc(-c2cc(-c3ccc(O)cc3)cc([N+](=O)[O-])c2)[nH]1 | 6.73
O=C(O)CSc1nnc(-c2ccc3ncccc3c2)[nH]1 | 5.47

Please turn your attention to the following entry.
So what pIC50 did `Cc1noc(C)c1-c1cc(-c2nnc(SCC(=O)O)[nH]2)cc([N+](=O)[O-])c1` get with GRK6, recombinant full-length GST-tagged human protein (Homo sapiens, UniProt P43250)? 5.86

----------
# TARGET: GRK6, recombinant full-length GST-tagged human protein (Homo sapiens, UniProt P43250)
# Construct: GRK6, recombinant full-length GST-tagged human protein; GST
# TEST_METHOD_NOTES: GRK6 IC50 determination (8-point concentration-response)
# Format: biochemical
# CONDITION_SUMMARY: 20 nM GRK6, 12 μM ATP (Km), 1 μM Peptide 216, 7 h incubation
pIC50: −log10 of the molar value.
# if value of pIC50 reaches 5, tag yes (1); if it stays below, tag no (0)

COMPOUND | CLASSIFICATION
O=C(O)CSc1nnc(-c2cccc(N3CCCCC3)c2)[nH]1 [Compound 187] | no (0)
N#Cc1cccc(-c2cccc(-c3nnc(SCC(=O)O)[nH]3)c2)c1 [Compound 64] | yes (1)
O=C(O)CSc1nnc(-c2cccc(F)c2)[nH]1 [Compound 115] | yes (1)

Identify whether the reported pIC50 of the following compound is 5 or greater: O=C(O)CSc1nnc(-c2cccc(N3CCNCC3)c2)[nH]1 [Compound 171] no (0)

Identify whether the reported pIC50 of the following compound is 5 or greater: COc1cc(-c2nnc(SCC(=O)O)[nH]2)cc(O)c1OC [Compound 168] no (0)

Identify whether the reported pIC50 of the following compound is 5 or greater: O=C(O)CSc1nnc(-c2cccc([N+](=O)[O-])c2)[nH]1 [Compound 92] yes (1)

Identify whether the reported pIC50 of the following compound is 5 or greater: O=C(O)CSc1nnc(-c2cccc(-c3cnccn3)c2)[nH]1 [Compound 126] yes (1)

----------
# TARGET: GRK6, recombinant full-length GST-tagged human protein (Homo sapiens, UniProt P43250)
# Construct: GRK6, recombinant full-length GST-tagged human protein; GST
# TEST_METHOD_NOTES: GRK6 IC50 determination (8-point concentration-response)
# Type: biochemical
# CONDITION_SUMMARY: 20 nM GRK6, 12 μM ATP (Km), 1 μM Peptide 216, 7 h incubation
pIC50: −log10 of the molar value.
# if value of pIC50 reaches 5, tag yes; if it stays below, tag no

MOLECULE | CLASSIFICATION
COc1ccc(-c2nnc(SCC(=O)O)[nH]2)cc1C | yes
C[S+]([O-])c1cccc(-c2nnc(SCC(=O)O)[nH]2)c1 (centres unmarked) | no
CCN(CC)c1ccc(-c2nnc(SCC(=O)O)[nH]2)c(O)c1 | no

Identify whether the reported pIC50 of the following molecule is 5 or greater: `CC(=O)c1cccc(-c2nnc(SCC(=O)O)[nH]2)c1` yes

Value source: patent US20170050939A1
